- Target entity: Aspartate--tRNA(Asp/Asn) ligase (Mycobacterium tuberculosis (strain ATCC 25618 / H37Rv)) (UniProt P9WFW3)
- Sequence (P9WFW3 whole entry): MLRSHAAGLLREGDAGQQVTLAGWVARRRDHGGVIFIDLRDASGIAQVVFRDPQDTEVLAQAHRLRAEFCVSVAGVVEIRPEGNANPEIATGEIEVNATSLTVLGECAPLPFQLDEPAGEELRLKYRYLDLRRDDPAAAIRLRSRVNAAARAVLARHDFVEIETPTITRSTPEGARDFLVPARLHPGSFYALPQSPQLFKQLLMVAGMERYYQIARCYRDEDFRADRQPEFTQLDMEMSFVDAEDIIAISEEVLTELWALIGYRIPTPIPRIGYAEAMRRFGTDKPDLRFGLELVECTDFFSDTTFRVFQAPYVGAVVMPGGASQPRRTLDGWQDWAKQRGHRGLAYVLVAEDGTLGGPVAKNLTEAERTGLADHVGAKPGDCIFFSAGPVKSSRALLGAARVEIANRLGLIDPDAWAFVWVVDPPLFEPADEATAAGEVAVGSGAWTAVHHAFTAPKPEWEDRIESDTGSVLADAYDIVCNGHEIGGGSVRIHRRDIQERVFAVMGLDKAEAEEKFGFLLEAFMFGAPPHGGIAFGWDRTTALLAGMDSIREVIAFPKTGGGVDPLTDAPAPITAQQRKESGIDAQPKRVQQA
- Assay procedure: Assay for Asp RNA synthetase-1 from Mycobacterium tuberculosis
- Type: functional
- Design: scale not given: in the data most compounds retested in dose-response had high values
- Study conditions: 30 µM
Metric name: Percent Effect (%)
Kindly provide the numeric value in % only, without the unit symbol.

Observe how each entry below is paired with its result.
INSERT INTO measurements (compound, unit_info, quantitative_readout) VALUES
  ('COc1ccc(C)cc1CSCCn1nc2ccccn2c1=O', '%', -3.83),
  ('Cc1cnc(CN(C)C2CCN(CCn3cc(C#N)cn3)C2)o1 (centres undefined)', '%', 5.46),
  ('CC(=O)NCC(=O)N1Cc2nccn2CC(Cn2cccn2)C1 (centres undefined)', '%', -1.48),
  ('Cc1ccccc1CC(=O)N(C)C1CCCC1', '%', -6.33),
  ('CCC(NC(=O)C1CCN(S(C)(=O)=O)CC1)c1ccc(OC)c(OC)c1 (centres undefined)', '%', 0),
  ('CC(C)c1nc(N2CCN3CCCC3C2)c2cnn(C)c2n1 (centres undefined)', '%', 4.74),
  ('CCc1nc(CN2CCN(c3ncnc4cc(F)ccc34)CC2)no1', '%', -1.46),
  ('Cc1cc(C)n(CC2CN(CC(=O)Nc3nncs3)CCO2)n1 (centres undefined)', '%', 1.4);

Asked: Return Percent Effect (reported value) for this compound: CC(C)NC(=O)[C@H]1C[C@@H]2[C@@H](C1)OCCN2Cc1cccnc1
Given back: 3.61

Asked: Return Percent Effect (reported value) for this compound: COCC1CN(S(C)(=O)=O)Cc2ncn(CC3CC3)c21 (centres undefined)
Given back: -3.82

Asked: Return Percent Effect (reported value) for this compound: Cc1ccc(C(O)CNC(=O)NCc2nc(C)cs2)cc1 (centres undefined)
Given back: -0.636

Asked: Return Percent Effect (reported value) for this compound: COCCNC(=O)CN1CCN(c2nc(C)cs2)C(C)C1 (centres undefined)
Given back: -0.728

Asked: Return Percent Effect (reported value) for this compound: Cc1ccc(C(=O)N2CCN(CCc3cccs3)CC2)c(=O)[nH]1
Given back: -1.83
